# Test system: IGROV1 ovarian
# TEST DESCRIPTION: NCI tumour cell line growth inhibition, 48 h
// values below are reported GI50

INSERT INTO assay_data (molecule, experimental_value) VALUES
  ('Cn1cc(-c2cc(-c3cn(C)c4ccccc34)[nH]n2)c2ccccc21', '8900 nM');

get_value(item= `[O]=[Sn]([CH]1CCCCC1)[CH]1CCCCC1` , readout=GI50) returns 274 nM

---

# Test system: CCRF-CEM leukemia
# TEST DESCRIPTION: NCI tumour cell line growth inhibition, 48 h
// values below are reported GI50

get_value(item= CC[C@H](C)[C@H](NC(=O)C12C3C4C1C1C2C3C41NC)C(=O)N(C)[C@H](C[C@@H](OC(C)=O)c1nc(C(=O)N[C@@H](Cc2ccccc2)C[C@H](C)C(=O)OC)cs1)C(C)C (stereo partly drawn) , readout=GI50) returns 445 nM
